Recorded Emax by entry
- assayed target: CB1 receptor (Homo sapiens, UniProt P21554)
- Sequence (P21554 whole entry): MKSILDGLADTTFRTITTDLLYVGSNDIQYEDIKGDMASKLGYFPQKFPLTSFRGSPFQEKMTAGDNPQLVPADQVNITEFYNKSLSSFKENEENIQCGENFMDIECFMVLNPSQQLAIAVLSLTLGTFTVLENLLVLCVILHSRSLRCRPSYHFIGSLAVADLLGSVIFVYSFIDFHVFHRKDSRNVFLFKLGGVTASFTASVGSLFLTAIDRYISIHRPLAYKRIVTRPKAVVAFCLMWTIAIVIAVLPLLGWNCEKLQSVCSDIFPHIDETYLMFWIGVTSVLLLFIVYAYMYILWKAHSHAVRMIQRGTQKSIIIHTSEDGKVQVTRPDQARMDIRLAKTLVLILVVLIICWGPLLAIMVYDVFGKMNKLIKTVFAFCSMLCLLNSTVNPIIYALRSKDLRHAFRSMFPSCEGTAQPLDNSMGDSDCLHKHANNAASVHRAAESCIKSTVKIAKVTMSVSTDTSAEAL
- experiment notes: GTPγ[35S] functional binding assay, CB1 membranes
- Assay type: biochemical
- Parameters: Brussels, Belgium; host or cells: CHO-K1; reference not given here
- assay conditions: GTPγ[35S] binding

| smiles record | assayed target | Emax [%] |
| --- | --- | --- |
| O=C(Nc1sc2c(c1C(=O)N1CCCCC1)CCCCC2)[C@H]1CCCN1S(=O)(=O)c1cccs1 | CB1 receptor (Homo sapiens, UniProt P21554) | 150 |
| O=C(Nc1sc2c(c1C(=O)N1CCCCC1)CCCCC2)[C@@H]1CCCN1S(=O)(=O)c1ccccc1 | CB1 receptor (Homo sapiens, UniProt P21554) | 8 |
| O=C(Nc1sc2c(c1C(=O)N1CCCCC1)CCCCC2)[C@H]1CCCN1S(=O)(=O)c1ccccc1 | CB1 receptor (Homo sapiens, UniProt P21554) | 80 |
| Cc1ccc(S(=O)(=O)N2CCC[C@@H]2C(=O)Nc2sc3c(c2C(=O)N2CCCCC2)CCCCC3)cc1 | CB1 receptor (Homo sapiens, UniProt P21554) | 8 |
| O=C(Nc1sc2c(c1C(=O)N1CCCCC1)CCCCC2)[C@H]1CCCN1S(=O)(=O)c1ccc(F)cc1 | CB1 receptor (Homo sapiens, UniProt P21554) | 68 |
